Answer each item with its documented thermal shift delta Tm.
System: LOC_OS02G54510-cb004
Test: thermal shift delta Tm vs DMSO control; higher = stronger stabilization (binding);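 further: purified Escherichia coli-expressed rice kinase domain construct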
Conditions: 12.5 µM; protein concentration 2 µM
Counter-ions that a name gives are not always drawn.
Dear colleague, please return just the value in °C, with no unit written.

[Q] Fill in: thermal shift delta Tm of COc1cc(OC)c(C=C2C(=O)Nc3ccccc32)c(OC)c1 is ___
[A] 0.07

[Q] Fill in: thermal shift delta Tm of CC(C)c1cnn2c(NCc3ccccc3)cc(NCCCCCCN)nc12 is ___
[A] 0.22

[Q] Fill in: thermal shift delta Tm of Fc1ccc2[nH]ccc2c1-c1nc(N2CCOCC2)c2sc(CN3CCN(CC4CC4)CC3)cc2n1 is ___
[A] -0.03

[Q] Fill in: thermal shift delta Tm of Cc1cc([C@@H](C)Nc2ccccc2C(=O)O)c2nc(N3CCOCC3)cc(=O)n2c1 is ___
[A] 0.49

[Q] Fill in: thermal shift delta Tm of COc1cc(N2CCN(C)CC2)ccc1Nc1nccc(-c2cn(C)c3cnccc23)n1 is ___
[A] 0.02

[Q] Fill in: thermal shift delta Tm of CCCCCCCCc1ccc(CCC(N)(CO)CO)cc1 [Fingolimod (FTY720) HCl] is ___
[A] -0.96

[Q] Fill in: thermal shift delta Tm of CCOc1cc2ncc(C#N)c(Nc3ccc(OCc4ccccn4)c(Cl)c3)c2cc1NC(=O)/C=C/CN(C)C [Neratinib (HKI-272)] is ___
[A] 0.16

[Q] Fill in: thermal shift delta Tm of Cc1cc(Nc2cc(N3CCN(C)CC3)nc(Sc3ccc(NC(=O)C4CC4)cc3)n2)n[nH]1 [Tozasertib (VX-680, MK-0457)] is ___
[A] 1.33

[Q] Fill in: thermal shift delta Tm of FC(F)(F)c1ccc(Nc2nc3ccc(Oc4ccnc(-c5ncc(C(F)(F)F)[nH]5)c4)cc3[nH]2)cc1 [Raf265 derivative] is ___
[A] 0.28

----------
Tested on: LOC_OS02G14120-cb001
Experiment: thermal shift delta Tm vs DMSO control; higher = stronger stabilization (binding)
Details: 12.5 µM; protein concentration 2 µM
Please assign a class to every record based on measured thermal shift delta Tm, with ranges bin A = under 0.2 °C, bin B = from 0.2 °C up to 2 °C, bin C = 2 °C and over

[Q] The entry to classify is CC(C)(C)c1cnc(CSc2cnc(NC(=O)C3CCNCC3)s2)o1 ; which class holds it?
[A] bin B

[Q] The entry to classify is O=c1sn(-c2cccc3ccccc23)c(=O)n1Cc1ccccc1 ; which class holds it?
[A] bin A

[Q] The entry to classify is CN(C)C/C=C/C(=O)Nc1cc2c(Nc3ccc(F)c(Cl)c3)ncnc2cc1O[C@H]1CCOC1 [Afatinib (BIBW2992) Dimaleate] ; which class holds it?
[A] bin C

[Q] The entry to classify is CCc1ccc(/C=C2/SC(=S)NC2=O)cc1 ; which class holds it?
[A] bin B

[Q] The entry to classify is c1cn2cc(-c3ccc4cn[nH]c4c3)nc(Nc3ccc(N4CCOCC4)cc3)c2n1 ; which class holds it?
[A] bin C

[Q] The entry to classify is Cc1cnc(Nc2ccc(OCCN3CCCC3)cc2)nc1Nc1cccc(S(=O)(=O)NC(C)(C)C)c1 ; which class holds it?
[A] bin C

[Q] The entry to classify is Cc1cn(-c2cc(NC(=O)c3ccc(C)c(Nc4nccc(-c5cnccn5)n4)c3)cc(C(F)(F)F)c2)cn1 ; which class holds it?
[A] bin B

[Q] The entry to classify is CNC(=O)c1cc(COc2nnc(Nc3ccc(Cl)cc3)c3ccoc23)ccn1 ; which class holds it?
[A] bin A

[Q] The entry to classify is CS(=O)(=O)c1ccc(-c2cnc(N)c(C(=O)Nc3ccccc3)n2)cc1 ; which class holds it?
[A] bin A

[Q] The entry to classify is FC(F)(F)c1ccc(Nc2nc3ccc(Oc4ccnc(-c5ncc(C(F)(F)F)[nH]5)c4)cc3[nH]2)cc1 ; which class holds it?
[A] bin B

[Q] The entry to classify is O=C(NC(NC(=S)Nc1ccc(F)c([N+](=O)[O-])c1)C(Cl)(Cl)Cl)C(c1ccccc1)c1ccccc1 (stereo not drawn) ; which class holds it?
[A] bin C

[Q] The entry to classify is CC(C)=CC[C@@H](O)C1=CC(=O)c2c(O)ccc(O)c2C1=O ; which class holds it?
[A] bin A

[Q] The entry to classify is Nc1nccc(Oc2ccc3c(C(=O)Nc4cccc(C(F)(F)F)c4)cccc3c2)n1 ; which class holds it?
[A] bin B

[Q] The entry to classify is Cc1cc(C(=O)NOCCO)c(Nc2ccc(I)cc2F)n(C)c1=O ; which class holds it?
[A] bin A

[Q] The entry to classify is CC(C)Nc1cc(-c2c[nH]c(C(=O)N[C@H](CO)c3cccc(Cl)c3)c2)c(Cl)cn1 ; which class holds it?
[A] bin B

[Q] The entry to classify is O=c1cc(N2CCOCC2)oc2c(-c3ccc4c(c3)OCCO4)csc12 ; which class holds it?
[A] bin B

[Q] The entry to classify is COc1ccc(-c2cc3c(C)nc(N)nc3n([C@H]3CC[C@H](OCCO)CC3)c2=O)cn1 ; which class holds it?
[A] bin B
